method: Tmax in Sprague-Dawley rat at 5 mg/kg, iv measured upto 36 hrs by LC-MS/MS analysis
Assay type: ADME, organism-based
measurement_context: in vivo
Tmax by entry:
attribute_measured: Tmax (min)

line_notation	measure_unit	result
CC(C)(Sc1ccncc1-c1ccc(C#N)c2ccccc12)C(=O)[O-].[Na+]	min	5.4
N#Cc1ccc(Nc2cnccc2SCc2ccccc2C(=O)[O-])c2ccccc12.[Na+]	min	10.2

====

method: Oral bioavailability in Sprague-Dawley rat at 5 mg/kg measured upto 36 hrs by LC-MS/MS analysis
Type: ADME, organism-based
measurement_context: in vivo
attribute_measured: bioavailability (%)

line_notation	attribute_measured	measure_unit	result
N#Cc1ccc(Nc2cnccc2SCc2ccccc2C(=O)[O-])c2ccccc12.[Na+]	bioavailability	%	30.1
CC(C)(Sc1ccncc1-c1ccc(C#N)c2ccccc12)C(=O)[O-].[Na+]	bioavailability	%	21.5

====

IC50 at 48 h by entry:
method: Cytotoxicity against human HK-2 cells assessed as reduction in cell viability incubated for 48 hrs by MTT assay
Format: toxicity, cell-based

line_notation	IC50 at 48 h
CC(C)(Sc1ccncc1-c1ccc(C#N)c2ccccc12)C(=O)[O-].[Na+]	109 µM
N#Cc1ccc(Nc2cnccc2SCc2ccccc2C(=O)[O-])c2ccccc12.[Na+]	167 µM

====

IC50 by entry:
target_desc: Solute carrier family 22 member 6 (Homo sapiens)
Sequence (Q4U2R8 whole entry): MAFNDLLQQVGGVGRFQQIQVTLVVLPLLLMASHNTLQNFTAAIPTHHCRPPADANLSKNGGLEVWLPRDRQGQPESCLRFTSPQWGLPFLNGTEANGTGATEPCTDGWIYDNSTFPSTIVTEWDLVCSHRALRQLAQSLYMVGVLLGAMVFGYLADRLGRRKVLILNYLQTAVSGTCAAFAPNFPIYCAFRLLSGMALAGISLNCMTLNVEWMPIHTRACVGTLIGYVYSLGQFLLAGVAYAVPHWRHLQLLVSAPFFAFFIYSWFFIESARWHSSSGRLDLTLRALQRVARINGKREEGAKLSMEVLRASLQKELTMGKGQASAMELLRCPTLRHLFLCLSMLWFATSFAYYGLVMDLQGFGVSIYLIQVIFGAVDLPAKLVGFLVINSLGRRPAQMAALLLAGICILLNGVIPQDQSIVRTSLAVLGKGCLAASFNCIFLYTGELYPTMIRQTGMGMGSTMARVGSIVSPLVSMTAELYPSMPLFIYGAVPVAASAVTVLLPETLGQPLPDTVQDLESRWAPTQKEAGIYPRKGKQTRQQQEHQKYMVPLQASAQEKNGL
method: Inhibition of OAT1 (unknown origin) expressed in HEK293 cells assessed as inhibition of 6-CFL uptake preincubated for 30 mins followed by incubation with 6-CFL and measured after 15 mins by fluorescence based analysis

line_notation	IC50 (µM)
N#Cc1ccc(Oc2cnccc2SCCCC(=O)O)c2ccccc12	41.3
CC(C)(Sc1ccncc1-c1ccc(C#N)c2ccccc12)C(=O)[O-].[Na+]	12.7
N#Cc1ccc(Nc2cnccc2SCc2ccccc2C(=O)[O-])c2ccccc12.[Na+]	32.1
COc1cc(C(=O)O)ccc1CSc1ccncc1N(C)c1ccc(C#N)c2ccccc12	25.5

====

IC50 by entry:
target_desc: Broad substrate specificity ATP-binding cassette transporter ABCG2 (Homo sapiens)
Sequence (Q9UNQ0 whole entry): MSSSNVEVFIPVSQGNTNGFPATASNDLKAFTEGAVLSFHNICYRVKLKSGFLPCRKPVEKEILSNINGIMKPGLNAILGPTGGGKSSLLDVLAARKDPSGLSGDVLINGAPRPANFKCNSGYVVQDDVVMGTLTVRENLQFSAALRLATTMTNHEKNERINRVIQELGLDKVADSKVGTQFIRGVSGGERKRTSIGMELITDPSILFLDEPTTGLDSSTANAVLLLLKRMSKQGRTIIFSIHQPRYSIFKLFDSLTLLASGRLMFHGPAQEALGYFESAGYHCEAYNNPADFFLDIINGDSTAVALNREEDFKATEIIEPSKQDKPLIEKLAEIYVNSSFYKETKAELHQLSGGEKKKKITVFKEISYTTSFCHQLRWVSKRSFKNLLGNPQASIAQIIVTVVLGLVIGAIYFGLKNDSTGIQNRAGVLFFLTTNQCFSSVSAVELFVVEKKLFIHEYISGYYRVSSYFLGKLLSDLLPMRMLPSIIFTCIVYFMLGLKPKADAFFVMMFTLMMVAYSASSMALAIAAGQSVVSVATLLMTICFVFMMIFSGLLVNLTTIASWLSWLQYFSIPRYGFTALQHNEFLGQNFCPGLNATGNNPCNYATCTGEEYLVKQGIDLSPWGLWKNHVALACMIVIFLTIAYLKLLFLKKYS
method: Inhibition of ABCG2 (unknown origin) expressed in HEK293 cells membrane vesicles assessed as inhibition of ATP-induced 14C-uric acid uptake preincubated for 15 mins followed by incubation with ATP and substrate for 5 mins by liquid scintillation counting analysis

line_notation	IC50, µM
COc1cc(C(=O)O)ccc1CSc1ccncc1N(C)c1ccc(C#N)c2ccccc12	34.8
CC(C)(Sc1ccncc1-c1ccc(C#N)c2ccccc12)C(=O)[O-].[Na+]	18.7
N#Cc1ccc(Oc2cnccc2SCCCC(=O)O)c2ccccc12	27.9
N#Cc1ccc(Nc2cnccc2SCc2ccccc2C(=O)[O-])c2ccccc12.[Na+]	26.7

====

log10 of IC50 by entry:
target_desc: Solute carrier family 22 member 12 (Homo sapiens, UniProt Q96S37)
Sequence (Q96S37 whole entry): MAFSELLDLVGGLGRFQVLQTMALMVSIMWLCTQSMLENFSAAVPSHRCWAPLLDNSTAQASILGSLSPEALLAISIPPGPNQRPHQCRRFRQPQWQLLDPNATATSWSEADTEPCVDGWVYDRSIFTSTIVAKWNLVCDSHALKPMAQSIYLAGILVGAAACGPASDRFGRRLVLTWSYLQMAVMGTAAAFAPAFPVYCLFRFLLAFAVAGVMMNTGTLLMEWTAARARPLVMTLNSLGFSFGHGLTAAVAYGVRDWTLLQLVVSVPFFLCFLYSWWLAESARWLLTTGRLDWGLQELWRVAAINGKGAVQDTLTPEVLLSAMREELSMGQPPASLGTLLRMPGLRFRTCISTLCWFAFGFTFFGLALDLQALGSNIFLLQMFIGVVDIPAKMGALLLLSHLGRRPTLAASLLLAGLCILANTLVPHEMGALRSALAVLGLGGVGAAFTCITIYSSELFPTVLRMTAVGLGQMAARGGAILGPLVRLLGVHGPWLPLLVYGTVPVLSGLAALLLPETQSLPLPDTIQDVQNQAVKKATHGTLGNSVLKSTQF
method: Inhibition of URAT1 (unknown origin)-mediated 14C-uric acid uptake expressed in HEK293 cells using 14C-uric acid as substrate preincubated for 30 mins followed by substrate addition and measured after 15 mins by liquid scintillation counting analysis
attribute_measured: log10 of IC50 (log10 of the value in µM)

line_notation	attribute_measured	result
CN(c1cnccc1SCCCC(=O)O)c1ccc(C#N)c2ccccc12	log10 of IC50	0.41
N#Cc1ccc(Oc2cnccc2Sc2cccc([N+](=O)[O-])c2CC(=O)O)c2ccccc12	log10 of IC50	1.02
CC(C)(Sc1ccncc1-c1ccc(C#N)c2ccccc12)C(=O)[O-].[Na+]	log10 of IC50	-0.77
N#Cc1ccc(Nc2cnccc2SCCCCCC(=O)O)c2ccccc12	log10 of IC50	0.63
N#Cc1ccc(Oc2cnccc2Sc2ccc(Br)cc2CC(=O)O)c2ccccc12	log10 of IC50	0.91
N#Cc1ccc(Nc2cnccc2SCCCC(=O)O)c2ccccc12	log10 of IC50	0.44
N#Cc1ccc(Nc2cnccc2SCCCCCCC(=O)O)c2ccccc12	log10 of IC50	0.76
N#Cc1ccc(Oc2cnccc2SCc2cccc(C(=O)O)c2)c2ccccc12	log10 of IC50	0.82
N#Cc1ccc(Oc2cnccc2SCCCCCC(=O)O)c2ccccc12	log10 of IC50	0.68
N#Cc1ccc(Nc2cnccc2SCc2ccc(-c3ccccc3C(=O)O)cc2)c2ccccc12	log10 of IC50	0.67
COc1cc(C(=O)O)ccc1CSc1ccncc1N(C)c1ccc(C#N)c2ccccc12	log10 of IC50	-0.34
N#Cc1ccc(Oc2cnccc2SCc2ccc(-c3ccccc3C(=O)O)cc2)c2ccccc12	log10 of IC50	1.18

====

method: MRT (0 to infinity) in Sprague-Dawley rat at 5 mg/kg, iv by LC-MS/MS analysis
Type: ADME, organism-based
measurement_context: in vivo
MRT inf by entry:

line_notation	MRT inf
CC(C)(Sc1ccncc1-c1ccc(C#N)c2ccccc12)C(=O)[O-].[Na+]	3.46 h
N#Cc1ccc(Nc2cnccc2SCc2ccccc2C(=O)[O-])c2ccccc12.[Na+]	4.8 h

====

half-life by entry:
method: Half life in Sprague-Dawley rat at 5 mg/kg, iv measured upto 36 hrs by LC-MS/MS analysis
Assay type: ADME, organism-based
measurement_context: in vivo

line_notation	half-life
N#Cc1ccc(Nc2cnccc2SCc2ccccc2C(=O)[O-])c2ccccc12.[Na+]	4.19 h
CC(C)(Sc1ccncc1-c1ccc(C#N)c2ccccc12)C(=O)[O-].[Na+]	3.49 h

====

target_desc: UniProtKB Q96S37
method: Inhibition of URAT1 (unknown origin)-mediated 14C-uric acid uptake expressed in HEK293 cells using 14C-uric acid as substrate preincubated for 30 mins followed by substrate addition and measured after 15 mins by liquid scintillation counting analysis
pIC50: −log10 of the molar value.

line_notation	pIC50
N#Cc1ccc(Oc2cnccc2SCCCC(=O)O)c2ccccc12	5.91
N#Cc1ccc(Oc2cnccc2SCc2ccc(C(=O)O)cc2)c2ccccc12	4.99
N#Cc1ccc(Oc2cnccc2SCc2ccccc2C(=O)O)c2ccccc12	5.16
COc1ccc(Sc2ccncc2Nc2ccc(C#N)c3ccccc23)c(CC(=O)O)c1	5.37
COc1cc(C(=O)O)ccc1CSc1ccncc1Oc1ccc(C#N)c2ccccc12	4.79

====

pIC50 by entry:
method: Inhibition of URAT1 R487K mutant (unknown origin)-mediated 14C-uric acid uptake expressed in HEK293 cells using 14C-uric acid as substrate preincubated for 30 mins followed by substrate addition and measured after 15 mins by liquid scintillation counting analysis
Type: cell-based
measurement_context: Homo sapiens
pIC50: −log10 of the molar value.

line_notation	pIC50
CC(C)(Sc1ccncc1-c1ccc(C#N)c2ccccc12)C(=O)[O-].[Na+]	6.96
N#Cc1ccc(Nc2cnccc2SCc2ccccc2C(=O)[O-])c2ccccc12.[Na+]	5.72

Value source: ChEMBL document CHEMBL5154691
